The measurements presented in this section are drawn from PubChem BioAssay (NCI).

Test system: COLO 205 colon
Test: NCI-60 one-dose screen, 48 h (100 = growth as untreated, 0 = no growth, -100 = all killed)
Conditions: 10 µM unless noted
Description: Cells are grown in 96 well plates and exposed to the test compound for 48 hours. Compounds are tested at a single concentration, which is 10^-5 M for most compounds. The reported endpoint is percent growth (GI% or GIPRCNT), where numbers from 0 - 100% represent growth inhibition, and numbers from -100% - 0 represent cell death. For example, a value of 40 represents 60% growth inhibition. A value of 0 means no net growth occurred over the course of the experiment. […]
Compounds without any hit were thinned out: in the full panel of roughly 83,000, 20% have a hit.
VALUE KIND: growth (%)
API: value field is a number in %; no unit string.

Below, each entry is followed by its recorded growth result.
| COMPOUND | UNIT | growth |
| --- | --- | --- |
| O=C(Nc1ccc(Br)cc1F)c1cc(Cl)ccc1O | % | 24.2 |
| COc1ccc(Nc2nc(N/N=C/c3ccc(O)cc3)nc(Nc3ccc([N+](=O)[O-])cc3)n2)cc1 | % | 111 |
| CCCC(c1nnnn1C1CCCCC1)N1CCN(C(=O)c2ccco2)CC1 (stereo not given) | % | 73.4 |
| NC(=O)CSc1nc(-c2ccc(F)cc2)cc(-c2ccco2)n1 | % | 111 |
| OC(CNC1CCCCC1)Cn1c2ccc(I)cc2c2cc(I)ccc21 (stereo not given) | % | 104 |
| O=C(Nc1ccc(F)cc1F)c1cc(Br)ccc1O | % | 7.66 |
| Cc1nc2ccccc2c(/C=C/c2ccc(F)cc2)c1C(N)=O | % | 114 |
| COc1ccccc1N1CCN(C(CNS(=O)(=O)c2ccc(Cl)cc2)c2cccnc2)CC1 (stereo not given) | % | 108 |
| O=C(c1ccccc1)N(C(=S)NCCc1ccc(Cl)cc1)c1ccccc1 | % | 139 |
| COc1ccc(C2C3=C(COC3=O)N(CCO)c3cc4c(cc32)CCC4)cc1OC (stereo not given) | % | 14.9 |

Entry under review: `O=C(Nc1ccc(-c2nc3cc4ccccc4cc3[nH]2)cc1)c1cccc(Br)c1` . Reported growth?
34.6

Entry under review: `O=C(Nc1ccccc1O)c1ccc(Oc2cccc(C(=O)Nc3ccccc3O)c2)cc1` . Reported growth?
93.4

Entry under review: COc1cc2c(cc1OC)C(=O)C(CC1CCN(C(=O)Nc3ccc(C)cc3)CC1)C2 (stereo not given) . Reported growth?
110

Entry under review: CN1C(=O)N(C)C2Nn3c(s/c(=C\c4ccc(Cl)cc4Cl)c3=O)=NC21 (stereo not given) . Reported growth?
22

Entry under review: CCCN1C(=O)N(CCC)C2C1NN=c1s/c(=C3\C(=O)N(C(C)C)c4ccccc43)c(=O)n12 (stereo not given) . Reported growth?
43.8

Entry under review: `COc1cc(-c2c3c(c(Br)n2Cc2ccccc2)-c2nc(N)sc2CC3)cc(OC)c1OC` . Reported growth?
108

Entry under review: COc1cc(C2C(C#N)=C(N)OC3=C2C(=O)c2ccccc2C3=O)cc(OC)c1O (stereo not given) . Reported growth?
44.6

Entry under review: COC(=O)C1(C)COP(=O)(Nc2ccc(OC)cc2)OC1 (stereo not given) . Reported growth?
109

Entry under review: O=C(c1nc2ccccc2[nH]1)C1C(c2ccc([N+](=O)[O-])cc2)C2CC3CCCCC3N2[C@@]12C(=O)Nc1cc(Cl)ccc12 (stereo not given in full) . Reported growth?
22.2

Entry under review: `COc1ccc(/C=C2\N=C(c3ccccc3)N(c3ccc(-c4nc5ccc(C)cc5s4)cc3)C2=O)cc1` . Reported growth?
97.1
